Measured TGI, listed per entry.
- Tested on: NCI-H226 lung
- ASSAY REMARKS: NCI tumour cell line growth inhibition, 48 h
*1 amine or outer side, *2 acyl side, *3 side chain or, on linkers, in order; H or OH if unused. Where a SMILES comes first, the peptide text is derived from it. Bridges are numbered along the chain shown (N, C = ends). Roman numbers before positions name the chains, in order. [ ]: non-standard residue; d: D form. Actinocin(9to1) = Cc1c2oc3c(C)ccc(C(=O)[*:1])c3nc-2c(C(=O)[*:2])c(N)c1=O; X48 = O=C1CC(C(=O)[*:2])N([*:1])C1; NMeV = CN[CH](C(=O)O)C(C)C; Sar = CNCC(=O)O

Completed entries (count: 5):
MOLECULE	QUANTITY MEASURED	TEST RESULT
CC1(C)CCC2(C(=O)OC3OC(CO)C(O)C(O)C3O)CCC3(C)C(=CCC4C5(C)CCC(OC6OC(CO)C(O)C(O)C6O)C(C)(C)C5CCC43C)C2C1 (configuration not stated)	TGI	> 25 µM
Cc1c2oc3c(C)ccc(C(=O)NC4C(=O)NC(C(C)C)C(=O)N5CC(=O)CC5C(=O)N(C)CC(=O)N(C)C(C(C)C)C(=O)OC4C)c3nc-2c(C(=O)NC2C(=O)NC(C(C)C)C(=O)N3CC(=O)CC3C(=O)N(C)CC(=O)N(C)C(C(C)C)C(=O)OC2C)c(N)c1=O (configuration not stated) (I: TV[X48][Sar][NMeV] / II: TV[X48][Sar][NMeV]; ester I:1-I:C, II:1-II:C; linker I:N-II:N via Actinocin(9to1); configuration not given here)	TGI	> 1 µM
COc1ccc(N=c2ssc(C(=S)Nc3ccc(OC)cc3)c2S)cc1	TGI	> 100 µM
COc1ccc(NC(=O)C(=O)C2CNC(=O)NC2=O)c(OC)c1 (configuration not stated)	TGI	> 100 µM
COC1C=CC(C(=O)[N+]2=Cc3[nH]c4ccccc4c3CC2)O1 (configuration not stated)	TGI	> 100 µM

Entry `O=S(=O)(N=S(c1ccc(Cl)cc1)c1ccc(Cl)cc1)c1ccccc1` needs its TGI filled in; supply it.
> 100 µM

Identify the reported TGI for the following entry. CC(=O)Nc1ccc(C(=O)NN2C(=O)C(Cl)C2c2cc(Br)ccc2O)cc1 (configuration not stated)
36.1 µM

For `O=C(Nc1n[nH]c2nc(-c3ccco3)ccc12)C1CC1` , write its TGI.
> 25 µM

For the molecule `CCOc1ccccc1N=Nc1c(-c2ccccc2)nn(C(=O)CC(=O)Nc2cccc(Cl)c2)c1-c1ccccc1` , give its measured TGI value.
> 100 µM

Hello, please tell me recorded TGI for this one: O=C(O)CC(Nc1ccccc1)C(=O)O (configuration not stated)
> 100 µM

Respond only with TGI recorded for `CN1CCC[C@@H]1CCO[C@](C)(c1ccccc1)c1ccc(Cl)cc1`
25.3 µM

Supply TGI value. Item: `Cc1ccc(S(=O)(=O)OC2=C/C(=N\c3onc(C)c3C)c3ccccc3C2=O)cc1`
> 100 µM

Provide only the value of recorded TGI for `O=c1cc(-c2ccc(Cl)cc2)[nH]c2ncccc12`
> 100 µM

Given the molecule N#CC(c1ccccc1)N1CCCN(C(C#N)c2ccccc2)C1c1ccccc1O (configuration not stated) , write its reported TGI.
> 100 µM

Report TGI, nothing else, for this molecule: `CN(/N=C/c1cccs1)c1ccc(Cl)cc1[N+](=O)[O-]`
97.3 µM

Give the value of TGI reported for the following: Cc1ccc(OCC2OC(C#N)C(Oc3ccc(C)cc3)C2Oc2ccc(C)cc2)cc1 (configuration not stated)
> 100 µM

Read the entry Nc1ncnc2c1nc(-c1ccccc1)n2C1OC(CO)C(O)C1O (configuration not stated) and write its reported TGI.
> 100 µM
